SUBJECT OF TEST: T1, Monomeric hAng-2FD (human, UniProt O15123 282-496)
T1 construct: also called fibrinogen-like domain of human Ang2; Human Ang-2FD
T1 sequence: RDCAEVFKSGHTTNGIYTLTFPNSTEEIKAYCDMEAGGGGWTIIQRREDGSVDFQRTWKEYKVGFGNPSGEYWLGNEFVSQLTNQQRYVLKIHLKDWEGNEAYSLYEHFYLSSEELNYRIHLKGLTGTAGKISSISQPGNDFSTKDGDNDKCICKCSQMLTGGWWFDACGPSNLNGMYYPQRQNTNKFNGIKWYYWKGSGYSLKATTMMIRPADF
ASSAY NAME: SPR, captured Ab
pKd: −log10 of the molar value.

- BINDER: "H2M744N (antibody, V domains shown) VH: QVQLVQSGVEVKKPGASVKVSCKTSGYTFSNNGFSWVRQAPGQGLEWLGWISGYNGNTNYAQKFQGRVTMTTDTSTSTAYMELRTLRSDDTAVYYCARDQDYSNFHWLDPWGQGTLVTVAS VL: DIQMTQSPSSVSASVGDRVIITCRASQGLSSWLAWYQQKPGTAPKLLIHSASSLQTGVPSRFSGSGSGTEFALTINSLQPEDFGTYYCQQANSFPLTFGGGTRVEIK"
  pKd: 9.32
- BINDER: "H1H742N (antibody, V domains shown) VH: DVQLLESGGDLVQPGGSLRLSCEASGFTFRNYVMIWVRQAPGKGLEWVSGISNSGGTTHYTDSVKGRFTISRDNSKNTLYLQINSLRAEDTAVYYCAKGYLDTSLIEGNWFDPWGQGTLVTVSS VL: NIVMTQSPLSLPVTPGEPASISCRSSQSLLHSNGFNYLNWFLQKPGQSPQLLIYLGSNRASGVPDKFSGSGSGTDFTLNINRVEAEDVGIYFCMQTLQTPLTFGGGTKVEIK"
  pKd: 6.31
- BINDER: "H1H696P (antibody, V domains shown) VH: QVQLVESGGGLVKPGGSLRLSCAASGFTFSDYYMSWIRQAPGKGLEWVSYISYTGRTIYYADSVKGRFTISRDNAKNSLYLQMNSLRAEDTAVYYCARDTDYGDFFDYWGQGTLVTVSS VL: DIQMTQSPSSLSASVGDRVTITCRASQGISNYLAWFQQKPGKAPKSLIYAASSLQSGVPSKFSGSGSGTDFTLTISSLQPEDFATYYCQQYNSYPLTFGGGTKVEIK"
  pKd: 7.42
- BINDER: "H1H749N (antibody, V domains shown) VH: QVQLVESGGGVVQPGRSLRLSCAASGFTFSSYGMHWVRQAPGKGLEWVAVIWYDEFNKYYADSVKGRFTISRDNSKNTLYLQMNSLRAEDTAVYYCARERESGYSYGFDYWGQGTLVTVSS VL: EIVMTQSPATLSVSPGERATLSCRAGQSVSSNLAWYQQKPGQAPRLLIYGASTRATGIPARFSGSGSGTEFTLTISSLQSEDFAVYYCQQYNNWWTFGQGTKVEIK"
  pKd: 8.95
- BINDER: "H1H728N (antibody, V domains shown) VH: EVQLVESGGDLVQPGGSLRLSCTASGFTFSKYWMTWVRQAPGRGLEWVANIKEDGNEKYFLDSVKGRFTISRDNAKDLLFLQMNSLRGEDTAVYYCVRDRGIEVAGPFDYWGQGTLVTVSS VL: DIQMTQSPSTLSASVGDRVTVTCRASQTIINWLAWYQQKPGKAPKLLISKASSLESGVPSRFSGSGSGTEFTLTISSLQPDDFATYYCQQYNRYWTFGQGTMVEIK"
  pKd: 8.93
